study_target: T1, SARS-CoV-2-RBD (328-533)-Fc (SARS-CoV-2)
T1 construct: also called RBD-Fc
test_name: SPR (Biacore T200), RBD captured on anti-human Fc chip, scFv injected
endpoint_label: pKd
Give bare numbers, as −log10 of the molar value.

Some binders with known pKd results, for comparison:
| binder | pKd |
| --- | --- |
| 2020EP54-E12 scFv (scFv, also called 2020EP054-E12) scFv: EVQLVESGGGLVQPGGSLRLSCAVTGFIVSSNYMNWVRQAPGKGLEWVSVIYSGGTTYYADSVKGRFTISRDKSKNTLYLQMNNLRAEDTAMYYCATLGNDYGDYGTDYWGQGTLVTVSSGGGGSGGGGSGGGGSQLVLTQPPSVSVSPGQTASISCSGDRLGQKYTSWYQQRPGQSPVLIMYQDNKRPSGIPERFSGSNSGNTATLTISGIQSMDEADYYCQVWDSGSDHAVFGGGTQLTVL | 8.02 |
| 2020EP54-B02 scFv (scFv) scFv: QVQLVQSGAEVKKPGASVKVSCKASGYTFIGYYMHWMRQAPGQGLEWMGRINPNSGGTNYAEKFQGRVTMTRDTSISTAYMELSRLTFNDTAVYYCARWDSSSWKFDSWGQGTLVTVSSGGGGSGGGGSGGGGSEIVLTQSPSSLSASVGDRVTITCQASQDISNYLNWYQQKPGKAPKLLIYDASNLETGVPSRFSGSGSGTDFTFTISSLQPEDIATYYCQQYDNLPITFGQGTRLEIK | 7.16 |
| 2020EP60-F05 scFv (scFv) scFv: QVQLVESGGGVVQPGGSLRLSCAASGFTFSSYGMHWVRQAPGKGLEWVAVISYDGSNKYYADSVKGRFTISRDNSKNTLYLQMNSLRAEDTAVYYCAKARVALGYFDWLLYDGMDVWGQGTTVTVSSGGGGSGGGGSGGGGSSSELTQPPSVSVSPGQTASITCSGDKLGNKYVFWYQQKPGQSPILVIYQDNRRPSGIPERFSGSNSGNTATLTISGDPAMDEADYYCQAWDSSTVVFGGGTKLTVL | 8.21 |

Take each entry in turn and give its pKd.
1. 2020EP54-E10 scFv (scFv, also called 2020EP054-E10) scFv: QVQLVQSGAEVRKPGSSVKVSCKASGGTFSSFAISWVRQAPGQGLEWMGGIIPIFDTATYAQNFQGRVRMTADESTNTAYMELSSLTSEDTAVYYCARSTSYYDSRGDYKVGDFDYWGQGTLVTVSSGGGGSGGGGSGGGGSAIRMTQSPSSLSASVGDRVTITCQASQDISNYLNWYQQKPGKAPKLLIYDASNLETGVPSRFSGSGSGTDFTFTISSLQPEDIATYYCQQYDNLPLTFGGGTKVEIK
2. 2020EP54-H01 scFv (scFv, also called 2020EP054-H01) scFv: QVQLVESGGGVVQPGRSLRLSCAASGFTFSSYGMHWVRQAPGKGLEWVAVISYDGSNKYYADSVKGRFTISRDNSKNTLYLQMNSLRAEDTAVYYCAKGRGWYLDYWGQGTLVTVSSGGGGSGGGGSGGGGSNFMLTQPPSVSVSPGQTASITCSGDKLGDKYACWYQQKPGQSPVLVMYEDYKRPSGIPARFSGSNSGNTATLTISRVEGGDEGDYYCQVWDSRGPEVIFGGGTKLTVL
3. 2020EP53-D06 scFv (scFv) scFv: QVQLVQSGGGVVQPGRSLRLSCAASGFTFSSYAMHWVRQAPGKGLEWVAVISYDGSNKYYADSVKGRFTISRDNSKNTLYLQMNSLRAEDTAVYYCARDGEDGYNYISPFDYWGQGTLVTVSSGGGGSGGGGSGGGGSSYELTQPPSVSVAPGETARITCRGNDIGSKSVHWYQQKPGQAPVLVLYYDSDRPSGIPERFSGSNSGNTATLTISSVEAGDEADYYCQVWDIDVVFGGGTKLTVL
4. 2020EP61-A08 scFv (scFv) scFv: QVQLVQSGAEVKKPGASVKVSCKASGYTFTSYYMHWVRQAPGQGLEWMGIINPSGGSTSYAQKFQGRVTMTRDTSTSTVYMELSSLRSEDTAVYYCARESGNYYYDSSGYTFDYWGQGTLVTVSSGGGGSGGGGSGGGGSSYVLTQPLSVSVALGQTARITCGGNNIGSKNVHWYQQKPGQAPVLVIYYDSDRPSGIPERFSGSNSGNTATLTISGTQAMDEADYYCQAWDSSTVVFGGGTKLTVL

OUTPUT:
1: 8.72; 2: 7.50; 3: 8.36; 4: 7.16
